Biological target: hGLP-1R (Homo sapiens, UniProt P43220)
Sequence (P43220 24-463): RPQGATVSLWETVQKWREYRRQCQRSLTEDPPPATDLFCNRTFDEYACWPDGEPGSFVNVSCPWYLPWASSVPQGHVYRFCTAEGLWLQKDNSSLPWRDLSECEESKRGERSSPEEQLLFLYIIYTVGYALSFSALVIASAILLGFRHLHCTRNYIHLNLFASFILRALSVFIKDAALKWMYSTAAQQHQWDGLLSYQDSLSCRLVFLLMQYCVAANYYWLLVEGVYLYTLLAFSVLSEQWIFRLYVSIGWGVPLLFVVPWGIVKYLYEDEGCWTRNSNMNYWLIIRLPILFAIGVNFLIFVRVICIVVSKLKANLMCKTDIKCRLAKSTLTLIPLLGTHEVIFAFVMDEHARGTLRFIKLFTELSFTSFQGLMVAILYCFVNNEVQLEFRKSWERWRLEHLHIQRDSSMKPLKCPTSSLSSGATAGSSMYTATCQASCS
Test: cell-based or functional assay
Parameter cAMP Rel EC50 (receptor-expressing HEK-293 cells, 1% HSA): see the listing below.
# value in nM; strip the unit string

Below, 4 binders whose answers are already recorded.
YXQGTXTSDXXIXLDXKAQXTFIEXLIEGGPSSGEPPPE (synthetic construct; SITE 2: note = 2-Aminoisobutyric Acid; SITE 6: note = alpha-methyl-2-fluoro-L-phenylalanine; SITE 10: note = 3-(4-Pyridyl)-L-alanine; SITE 11: note = alpha-methyl-L-serine; SITE 13: note = alpha-methyl-leucine; SITE 16: note = L-ornithine; SITE 17: note = Lysine is chemically mo) [Example 457]
11.7
YXQGTXTSDXXILLDKKAQXAFIEYLEEGGPSSGAPPPE (Aib, αMeF(2F), 4Pal, αMeS, acylated Lys, amide; synthetic construct; SITE 2: note = 2-Aminoisobutyric Acid; SITE 6: note = alpha-methyl-2-fluoro-L-phenylalanine; SITE 10: note = 3-(4-Pyridyl)-L-alanine; SITE 11: note = alpha-methyl-L-serine; SITE 17: note = Lysine is chemically modified through conjugation of the epsilon-amino group of the Lysine) [Example 464]
45.5
YXQGTXTSDXXIXLDXKAQXXFIEYLIEGGPSSGEPPPEEG (synthetic construct; SITE 2: note = 2-Aminoisobutyric Acid; SITE 6: note = alpha-methyl-2-fluoro-L-phenylalanine; SITE 10: note = 3-(4-Pyridyl)-L-alanine; SITE 11: note = alpha-methyl-L-serine; SITE 13: note = alpha-methyl-leucine; SITE 16: note = L-ornithine; SITE 17: note = Lysine is chemically mo) [Example 476]
14.6
YXQGTXTSDXXIXLDXKAQXXFIEXLIEGGPSSGEPEPSEG (synthetic construct; SITE 2: note = 2-Aminoisobutyric Acid; SITE 6: note = alpha-methyl-2-fluoro-L-phenylalanine; SITE 10: note = 3-(4-Pyridyl)-L-alanine; SITE 11: note = alpha-methyl-L-serine; SITE 13: note = alpha-methyl-leucine; SITE 16: note = L-ornithine; SITE 17: note = Lysine is chemically mo) [Example 481]
14.2

Give the reported cAMP Rel EC50 (receptor-expressing HEK-293 cells, 1% HSA) for this binder. YXQGTXTSDXXIXLDXKAQXNFIEYLIEGGPSSGEPPPEEG (synthetic construct; SITE 2: note = 2-Aminoisobutyric Acid; SITE 6: note = alpha-methyl-2-fluoro-L-phenylalanine; SITE 10: note = 3-(4-Pyridyl)-L-alanine; SITE 11: note = alpha-methyl-L-serine; SITE 13: note = alpha-methyl-leucine; SITE 16: note = L-ornithine; SITE 17: note = Lysine is chemically mo) [Example 482]
14.9

Look up and state reported cAMP Rel EC50 (receptor-expressing HEK-293 cells, 1% HSA) for YXQGTXTSDXSIXLDKKAQXAFIEYLEEGGPSSGAPPPE (non-natural residues; acylated Lys; C-terminal amide; synthetic construct; SITE 2: note = 2-Aminoisobutyric Acid; SITE 6: note = alpha-methyl-2-fluoro-L-phenylalanine; SITE 10: note = 4-nitro-L-phenylalanine; SITE 13: note = alpha-methyl-leucine; SITE 17: note = Lysine is chemically modified through conjugation of the epsilon-amino group of the Lysine) [Example 495]
53.8

Provide only the value of recorded cAMP Rel EC50 (receptor-expressing HEK-293 cells, 1% HSA) for YXQGTXTSDXSIXLDXKAQXAFIEYLEEGGPSSGEPPPS (synthetic construct; SITE 2: note = 2-Aminoisobutyric Acid; SITE 6: note = alpha-methyl-2-fluoro-L-phenylalanine; SITE 10: note = 3-(4-Pyridyl)-L-alanine; SITE 13: note = alpha-methyl-leucine; SITE 16: note = L-ornithine; SITE 17: note = Lysine is chemically modified through conjugation of the epsil) [Example 486]
35

Let me know recorded cAMP Rel EC50 (receptor-expressing HEK-293 cells, 1% HSA) for YXQGTXTSDXXEXLDXKAQXXFIEXLIEGGPSSGEPPPE (synthetic construct; SITE 2: note = 2-Aminoisobutyric Acid; SITE 6: note = alpha-methyl-2-fluoro-L-phenylalanine; SITE 10: note = 3-(4-Pyridyl)-L-alanine; SITE 11: note = alpha-methyl-L-serine; SITE 13: note = alpha-methyl-leucine; SITE 16: note = L-ornithine; SITE 17: note = Lysine is chemically mo) [Example 447] , thanks.
11.3

Output measured cAMP Rel EC50 (receptor-expressing HEK-293 cells, 1% HSA) for this item: YXQGTXTSDXSIXLDXKAQXXFIEXLIEGGPSSGEPPPEEG (synthetic construct; SITE 2: note = 2-Aminoisobutyric Acid; SITE 6: note = alpha-methyl-2-fluoro-L-phenylalanine; SITE 10: note = 3-(4-Pyridyl)-L-alanine; SITE 13: note = alpha-methyl-leucine; SITE 16: note = L-ornithine; SITE 17: note = Lysine is chemically modified through conjugation of the epsil) [Example 475]
18.6

Supply recorded cAMP Rel EC50 (receptor-expressing HEK-293 cells, 1% HSA) for YXQGTXTSDXSIXLDXKAQXXFIEYLIEGGPSSGEPPPSEG (synthetic construct; SITE 2: note = 2-Aminoisobutyric Acid; SITE 6: note = alpha-methyl-2-fluoro-L-phenylalanine; SITE 10: note = 3-(4-Pyridyl)-L-alanine; SITE 13: note = alpha-methyl-leucine; SITE 16: note = L-ornithine; SITE 17: note = Lysine is chemically modified through conjugation of the epsil) [Example 489] here.
11.8

Report cAMP Rel EC50 (receptor-expressing HEK-293 cells, 1% HSA) for HXQGTXTSDXXIXLDXKAQXAFIEYLLEGGPSSGEPPPE (synthetic construct; SITE 2: note = 2-Aminoisobutyric Acid; SITE 6: note = alpha-methyl-2-fluoro-L-phenylalanine; SITE 10: note = 3-(4-Pyridyl)-L-alanine; SITE 11: note = alpha-methyl-L-serine; SITE 13: note = alpha-methyl-leucine; SITE 16: note = L-ornithine; SITE 17: note = Lysine is chemically mo) [Example 466]
13.3

Identify the reported cAMP Rel EC50 (receptor-expressing HEK-293 cells, 1% HSA) for the following entry. YXQGTXTSDYSILLDKKAQXAFIEYLEEGGPSSGAPPPEEG (non-natural residues, C18 diacid acylation, C-terminal amide; synthetic construct; SITE 2: note = 2-Aminoisobutyric Acid; SITE 6: note = alpha-methyl-2-fluoro-L-phenylalanine; SITE 17: note = Lysine is chemically modified through conjugation of the epsilon-amino group of the Lysine side chain with (gamma-Glu)2-CO-(CH2)16-CO2H; SITE 20: note = 2-Aminoisobutyric) [Example 471]
37.9

Values were extracted from patent US20240270821A1.
